# Measurement Protocol: qHTS assay to identify small molecule antagonists of the estrogen receptor alpha (ER-alpha) signaling pathway using the BG1 cell line - cell viability counter screen (AID 743081);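 also: compound given together with 17beta-estradiol as the ER stimulus; nearly all actives have a fitted effect of over 45% in size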
# Setup Conditions: BG1Luc4E2 viability, CellTiter-Fluor, 22 h; series mostly up to 70.3 µM
Results filed as inconclusive are left out. Calls of active or inactive are those of the source. Calls follow the shape of the dose curve; as a rule, active = well fitted cell-killing curve with a large enough effect in the repeat runs; inconclusive = weak or mixed curves, or effect the other way; inactive = flat fitted curve, though single readings scatter.
Mark one answer only. Choices: active, inactive

Problem: How did this test come out for "COc1ccc(C[C@H](N)C(=O)N[C@H]2[C@@H](O)[C@H](n3cnc4c(N(C)C)ncnc43)O[C@@H]2CO)cc1" ?
Result: active

Problem: Same for CO[C@@]1(NC(=O)C2SC(=C(C(N)=O)C(=O)O)S2)C(=O)N2C(C(=O)O)=C(CSc3nnnn3C)CS[C@@H]21 (some centres undefined)
Result: inactive

Problem: Same for CC(C)CCCC(C)NC(C)C (centres undefined)
Result: inactive

Problem: Same for "CC(=C\c1ccccc1)/C=C1/SC(=S)N(CC(=O)O)C1=O"
Result: active

Problem: Same for "O=C(O[C@H]1CN2CCC1CC2)N1CCc2ccccc2[C@@H]1c1ccccc1"
Result: inactive

Problem: Same for "Cc1ccccc1CNc1ncnc2c1ncn2[C@@H]1O[C@H](CO)[C@@H](O)[C@H]1O"
Result: inactive

Problem: Same for "CN[C@@H]1[C@H](O[C@H]2[C@H](O[C@H]3[C@H](O)[C@@H](O)[C@H](N=C(N)N)[C@@H](O)[C@@H]3N=C(N)N)O[C@@H](C)[C@]2(O)C=O)O[C@@H](CO)[C@H](O)[C@H]1O"
Result: inactive

Problem: Same for "CCCCCCCCCCCCCCCCCC(=O)OCCO"
Result: inactive

Problem: Same for "CCCCCCCCCCCCCCCC(=O)OC[C@@H](NC(=O)C(Cl)Cl)[C@H](O)c1ccc([N+](=O)[O-])cc1"
Result: inactive

---

# Target Entity: Nuclear receptor subfamily 1 group I member 2 (Homo sapiens)
# Measurement Protocol: Human pregnane X receptor (PXR) activation by small molecules, qHTS assay (AID 1346985); also: nearly all actives have a fitted effect of over 40% in size
# Setup Conditions: DPX-2 HepG2 CYP3A4-luciferase, 24 h; series mostly up to 38.3 µM
Inconclusive results are not listed. Active and inactive are the calls of the source. Calls follow the shape of the dose curve; as a rule, active = well fitted activation curve with a large enough effect in the repeat runs; inconclusive = weak or mixed curves; inactive = flat fitted curve, though single readings scatter.
Mark one answer only. Choices: 1 = active, -1 = inactive

Problem: How did this test come out for "O=C1NC(=O)[C@H]2[C@@H]1[C@@H]1C=C[C@H]2C1" ?
Result: -1

Problem: Same for "CCN(CC)CCOc1ccc(-c2nc3cc(Cl)ccc3s2)cc1"
Result: 1

Problem: Same for "CC[C@@]1(O)C[C@H](O[C@H]2C[C@H](N(C)C)[C@H](O[C@H]3C[C@H](O)[C@H](O[C@H]4CCC(=O)[C@H](C)O4)[C@H](C)O3)[C@H](C)O2)c2c(cc3c(c2O)C(=O)c2c(O)cccc2C3=O)[C@H]1C(=O)OC"
Result: -1

Problem: Same for CC(O)[C@@H]1NC(=O)[C@H](Cc2ccccc2)NC(=O)[C@H](C(C)O)NC(=O)[C@H](CCCCN)NC(=O)[C@H](Cc2c[nH]c3ccccc23)NC(=O)[C@H](Cc2ccccc2)NC(=O)[C@H](Cc2ccccc2)NC(=O)[C@H](CC(N)=O)NC(=O)[C@H](CCCCN)NC(=O)[C@@H](NC(=O)CNC(=O)[C@H](C)N)CSSC[C@@H](C(=O)O)NC(=O)[C@H](CO)NC1=O (some centres undefined)
Result: -1

Problem: Same for "CC(=O)Nc1c(I)c(C(=O)O)c(I)c(N(C)C(C)=O)c1I"
Result: -1

Problem: Same for "CCCCC(=O)O[C@H]1CC[C@H]2[C@@H]3CCc4cc(O)ccc4[C@H]3CC[C@]12C"
Result: -1

Problem: Same for "CC1(C)S[C@@H]2[C@H](NC(=O)C3(N)CCCCC3)C(=O)N2[C@H]1C(=O)O"
Result: -1

Problem: Same for "CN[C@H]1CCc2cc(OC)c(OC)c(OC)c2-c2ccc(OC)c(=O)cc21"
Result: 1

Problem: Same for "CC(=O)N[C@@H]([C@@H](O)[C@H](O)[C@H](O)CO)[C@@H](O)CC(=O)C(=O)O"
Result: -1

Problem: Same for "COC(=O)[C@H]1[C@H]2C[C@@H]3c4[nH]c5cc(OC)ccc5c4CCN3C[C@H]2C[C@@H](OC(=O)/C=C/c2cc(OC)c(OC)c(OC)c2)[C@@H]1OC"
Result: -1

Problem: Same for "CC1(C)S[C@@H]2[C@H](NC(=O)[C@H](NC(=O)N3CCN(S(C)(=O)=O)C3=O)c3ccccc3)C(=O)N2[C@H]1C(=O)O"
Result: -1

Problem: Same for C[C@@H]1CCC2[C@@H](C)[C@@H](O)O[C@@H]3O[C@@]4(C)CC[C@@H]1[C@@]23OO4 (some centres undefined)
Result: -1

Problem: Same for "O=C(CO)[C@@H](O)[C@H](O)[C@@H](O)C(=O)O"
Result: -1

Problem: Same for "CO[C@H]1C[C@@H]2CC[C@@H](C)[C@@](O)(O2)C(=O)C(=O)N2CCCC[C@H]2C(=O)O[C@H]([C@H](C)C[C@@H]2CC[C@@H](OC(=O)C(C)(CO)CO)[C@H](OC)C2)CC(=O)[C@H](C)/C=C(\C)[C@@H](O)[C@@H](OC)C(=O)[C@H](C)C[C@H](C)/C=C/C=C/C=C/1C"
Result: -1

The origin of these recorded values is PubChem BioAssay (Tox21).
